System: SKBR3 Nat (native SKBR3 cells)
protocol: HDAC inhibitor cytotoxicity, CellTiter-Glo viability
Type: cell-based, human
conditionInfo: Homo sapiens, SK-BR-3, 72 h
Protocol: All inhibitors were provided by the Drug Discovery group at the Ontario Institute for Cancer Research (OICR, Toronto, Canada). Cells were seeded at 1000-1500 cells/well into 384-well plates (Greiner, Mississauga, Canada). […] After 72 h, the effects of inhibitors were determined using CellTiter-Glo Luminescent Cell Viability Assay (Promega, Madison, USA) and the Wallac EnVision 2104 Multilabel Reader (Perkin-Elmer, Woodbridge, Canada). […]
metric: pIC50
The value called pIC50 is obtained by taking minus log10 of the concentration in mol/L.

Examples from the recorded data:
INSERT INTO measurements (molecule, readoutnumber) VALUES
  ('O=C(CCCCCN1C(=O)c2cccc3cccc(c23)C1=O)NO [Scriptaid]', 5.90),
  ('O=C(/C=C/c1ccc(CN(CCO)CCc2c[nH]c3ccccc23)cc1)NO [Dacinostat]', 7.70),
  ('O=C(/C=C/c1cccc(S(=O)(=O)Nc2ccccc2)c1)NO [Belinostat]', 6.68),
  ('CN(C)Cc1c(C(=O)NCCOc2ccc(C(=O)NO)cc2)oc2ccccc12 [Abexinostat]', 6.68),
  ('Nc1ccccc1NC(=O)c1ccc(CNc2nccc(-c3cccnc3)n2)cc1 [Mocetinostat]', 6.00),
  ('Cc1[nH]c2ccccc2c1CCNCc1ccc(/C=C/C(=O)NO)cc1 [Panobinostat]', 7.70);

Problem: # pIC50 lookup, item Cn1cc(CNCC2CCN(c3ncc(C(=O)NO)cn3)CC2)c2ccccc21 [Quisinostat]
Solution: 8.00

Problem: # pIC50 lookup, item CCCCc1nc2cc(/C=C/C(=O)NO)ccc2n1CCN(CC)CC [Pracinostat]
Solution: 6.59

Problem: # pIC50 lookup, item CCN(CC)Cc1ccc2cc(COC(=O)Nc3ccc(C(=O)NO)cc3)ccc2c1 [Givinostat]
Solution: 6.66

====

Test system: ZR75 EpiR (epirubicin-resistant ZR-75-1 cells)
protocol: HDAC inhibitor cytotoxicity, CellTiter-Glo viability
Type: cell-based, human
conditionInfo: 72 h, in the presence of selection dose of epirubicin (10 nM)
metric: IC50 (nM)
# output: bare number, implied unit nM

INSERT INTO assay_data (compound, targetentity, metric, readoutnumber) VALUES
  ('O=C(/C=C/c1ccc(CN(CCO)CCc2c[nH]c3ccccc23)cc1)NO [Dacinostat]', 'ZR75 EpiR (epirubicin-resistant ZR-75-1 cells)', 'IC50', 20);

Problem: # IC50 lookup, item CCN(CC)Cc1ccc2cc(COC(=O)Nc3ccc(C(=O)NO)cc3)ccc2c1 [Givinostat]
Solution: 180

Problem: # IC50 lookup, item O=C(/C=C/c1cccc(C(=O)NO)c1)NO [CBHA]
Solution: 2250

Problem: # IC50 lookup, item O=C(/C=C/c1cccc(S(=O)(=O)Nc2ccccc2)c1)NO [Belinostat]
Solution: 460

====

Tested on: 231 EpiR (epirubicin-resistant MDA-MB-231 cells)
protocol: HDAC inhibitor cytotoxicity, CellTiter-Glo viability
Assay type: cell-based, human
conditionInfo: 72 h, CellTiter-Glo, in the presence of selection dose of epirubicin (25 nM)
pIC50: −log10 of the molar value.
Kind request: treat 7 as inclusive, so pIC50 at 7 or higher is criterion met, anything lower is criterion not met.

INSERT INTO measurements (structureassmiles, label) VALUES
  ('O=C(/C=C/c1ccc(CN(CCO)CCc2c[nH]c3ccccc23)cc1)NO', 'criterion met'),
  ('CC(C)(C)OC(=O)Nc1ccc(-c2cc(C(=O)NCCCCCCC(=O)NO)no2)cc1', 'criterion not met'),
  ('Cc1[nH]c2ccccc2c1CCNCc1ccc(/C=C/C(=O)NO)cc1', 'criterion met'),
  ('CCCCc1nc2cc(/C=C/C(=O)NO)ccc2n1CCN(CC)CC', 'criterion not met'),
  ('Nc1ccccc1NC(=O)c1ccc(CNc2nccc(-c3cccnc3)n2)cc1', 'criterion not met');

Query compound follows.
Problem: Could you tell me if the measured pIC50 of O=C(/C=C/c1cccc(S(=O)(=O)Nc2ccccc2)c1)NO reaches 7 or more?
Solution: criterion not met

====

Tested on: ZR75 EpiR (epirubicin-resistant ZR-75-1 cells)
protocol: HDAC inhibitor cytotoxicity, CellTiter-Glo viability
Type: cell-based, human
conditionInfo: 72 h, in the presence of selection dose of epirubicin (10 nM)
API: label(entry) gives Criterion met if the entry's IC50 is strictly smaller than 200 nM; on equality or larger values it gives Criterion not met.

These recorded examples may help you get a feel for the data.
INSERT INTO measurements (structureassmiles, label) VALUES
  ('CCC(=O)CCCCC[C@@H]1NC(=O)[C@H]2CCCCN2C(=O)[C@H]([C@@H](C)CC)NC(=O)[C@H](Cc2cn(OC)c3ccccc23)NC1=O', 'Criterion not met'),
  ('Cn1cc(CNCC2CCN(c3ncc(C(=O)NO)cn3)CC2)c2ccccc21', 'Criterion met'),
  ('CC(/C=C/C(=O)NO)=C\[C@@H](C)C(=O)c1ccc(N(C)C)cc1', 'Criterion not met'),
  ('CC(C)(C)OC(=O)Nc1ccc(-c2cc(C(=O)NCCCCCCC(=O)NO)no2)cc1', 'Criterion not met'),
  ('CN(C)Cc1c(C(=O)NCCOc2ccc(C(=O)NO)cc2)oc2ccccc12', 'Criterion met'),
  ('Cc1[nH]c2ccccc2c1CCNCc1ccc(/C=C/C(=O)NO)cc1', 'Criterion met'),
  ('CCCCc1nc2cc(/C=C/C(=O)NO)ccc2n1CCN(CC)CC', 'Criterion not met'),
  ('Nc1ccccc1NC(=O)c1ccc(CNc2nccc(-c3cccnc3)n2)cc1', 'Criterion not met');

Query molecule follows.
Problem: Does this molecule meet the criterion IC50 < 200 nM? O=C(CCCCCN1C(=O)c2cccc3cccc(c23)C1=O)NO
Solution: Criterion not met

====

Attribute: pIC50
System: 231 EpiR (epirubicin-resistant MDA-MB-231 cells)
protocol: HDAC inhibitor cytotoxicity, CellTiter-Glo viability
Assay type: cell-based, human
conditionInfo: 72 h, CellTiter-Glo, in the presence of selection dose of epirubicin (25 nM)
The value called pIC50 is obtained by taking minus log10 of the concentration in mol/L.

INSERT INTO assay_data (structureassmiles, readoutnumber) VALUES
  ('Cn1cc(CNCC2CCN(c3ncc(C(=O)NO)cn3)CC2)c2ccccc21', 8.00);

Problem: # pIC50 lookup, item O=C(/C=C/c1cccc(C(=O)NO)c1)NO
Solution: 5.76

Problem: # pIC50 lookup, item O=C(CCCCCN1C(=O)c2cccc3cccc(c23)C1=O)NO
Solution: 5.89

Problem: # pIC50 lookup, item CN(C)Cc1c(C(=O)NCCOc2ccc(C(=O)NO)cc2)oc2ccccc12
Solution: 6.92

====

Test system: MCF7 EpiR (epirubicin-resistant MCF7 cells)
protocol: HDAC inhibitor cytotoxicity, CellTiter-Glo viability
Type: cell-based, human
conditionInfo: 72 h, CellTiter-Glo, in the presence of selection dose of epirubicin (30 nM)
Attribute: IC50
# output: bare number, implied unit nM

INSERT INTO results (structureassmiles, metric, unitannotation, readoutnumber) VALUES
  ('Cc1[nH]c2ccccc2c1CCNCc1ccc(/C=C/C(=O)NO)cc1', 'IC50', 'nM', 10),
  ('CC(/C=C/C(=O)NO)=C\[C@@H](C)C(=O)c1ccc(N(C)C)cc1', 'IC50', 'nM', 500);

Problem: # IC50 lookup, item Cn1cc(CNCC2CCN(c3ncc(C(=O)NO)cn3)CC2)c2ccccc21
Solution: 10

Problem: # IC50 lookup, item O=C(CCCCCN1C(=O)c2cccc3cccc(c23)C1=O)NO
Solution: 720

====

Tested on: MCF7 EpiR (epirubicin-resistant MCF7 cells)
protocol: HDAC inhibitor cytotoxicity, CellTiter-Glo viability
Format: cell-based, human
conditionInfo: 72 h, CellTiter-Glo, in the presence of selection dose of epirubicin (30 nM)
metric: pIC50
The value called pIC50 is obtained by taking minus log10 of the concentration in mol/L.

Examples from the recorded data:
INSERT INTO results (structureassmiles, metric, readoutnumber) VALUES
  ('CCN(CC)Cc1ccc2cc(COC(=O)Nc3ccc(C(=O)NO)cc3)ccc2c1', 'pIC50', 7.10),
  ('Nc1ccccc1NC(=O)c1ccc(CNc2nccc(-c3cccnc3)n2)cc1', 'pIC50', 6.39);

Problem: # pIC50 lookup, item O=C(/C=C/c1cccc(C(=O)NO)c1)NO
Solution: 5.45

Problem: # pIC50 lookup, item CCC(=O)CCCCC[C@@H]1NC(=O)[C@H]2CCCCN2C(=O)[C@H]([C@@H](C)CC)NC(=O)[C@H](Cc2cn(OC)c3ccccc23)NC1=O
Solution: 6.96

====

Tested on: MCF7 EpiR (epirubicin-resistant MCF7 cells)
protocol: HDAC inhibitor cytotoxicity, CellTiter-Glo viability
Type: cell-based, human
conditionInfo: 72 h, CellTiter-Glo, in the presence of selection dose of epirubicin (30 nM)
pIC50: −log10 of the molar value.
Kind request: treat 7 as inclusive, so pIC50 at 7 or higher is TRUE, anything lower is FALSE.

These recorded examples may help you get a feel for the data.
INSERT INTO assay_data (structureassmiles, targetentity, label) VALUES
  ('O=C(/C=C/c1cccc(S(=O)(=O)Nc2ccccc2)c1)NO', 'MCF7 EpiR (epirubicin-resistant MCF7 cells)', 'FALSE'),
  ('O=C(/C=C/c1ccc(CN(CCO)CCc2c[nH]c3ccccc23)cc1)NO', 'MCF7 EpiR (epirubicin-resistant MCF7 cells)', 'TRUE');

Query molecule follows.
Problem: Could you tell me if the measured pIC50 of CC(C)(C)OC(=O)Nc1ccc(-c2cc(C(=O)NCCCCCCC(=O)NO)no2)cc1 reaches 7 or more?
Solution: FALSE
